Reported half-life values follow for various compounds
# TEST_NAME: Metabolic stability in human liver microsomes assessed as half life preincubated for 5 mins followed by NADPH addition measured upto 60 mins by LC-MS/MS analysis
# Format: ADME, Microsome
PROPERTY: half-life

{"SMILES_CODE": "CCCOC(=O)N1CCN(C(=O)c2ccc3c(Cl)cc(-c4ccccc4)nc3c2)CC1", "ASSAY_RESULT": "33 min"}
{"SMILES_CODE": "CCCOC(=O)N1CCN(C(=O)c2ccc3c(Cl)cc(-c4ccc(C)cc4)nc3c2)CC1", "ASSAY_RESULT": "36 min"}
{"SMILES_CODE": "CCCOC(=O)N1CCN(C(=O)c2ccc3c(Cl)cc(-c4ccc(C(=O)NC)cc4)nc3c2)CC1", "ASSAY_RESULT": "17 min"}
{"SMILES_CODE": "CCCOC(=O)N1CCN(C(=O)c2ccc3c(Cl)ccnc3c2)CC1", "ASSAY_RESULT": "40 min"}
{"SMILES_CODE": "CCCOC(=O)N1CCN(C(=O)c2ccc3c(Cl)cc(-c4ccc(C5(N)CC5)cc4)nc3c2)C[C@H]1C", "ASSAY_RESULT": "35 min"}
{"SMILES_CODE": "CCCOC(=O)N1CCN(C(=O)c2ccc3c(Cl)cc(-c4ccc(OC)cc4)nc3c2)CC1", "ASSAY_RESULT": "28 min"}
{"SMILES_CODE": "CCOC(=O)N1CCN(C(=O)c2ccc3c(Cl)c4c(nc3c2)CCCC4)CC1", "ASSAY_RESULT": "9 min"}
{"SMILES_CODE": "CCCOC(=O)N1CCN(C(=O)c2ccc3c(Cl)cc(-c4ccccc4)nc3c2)C[C@H]1C", "ASSAY_RESULT": "21 min"}

====

# TEST_NAME: Apparent intrinsic clearance in mouse liver microsomes measured upto 60 mins by LC-MS/MS analysis
# Type: ADME, Microsome
# MEASUREMENT_SETUP: 1 h

{"SMILES_CODE": "CCCOC(=O)N1CCN(C(=O)c2ccc3c(Cl)cc(-c4ccc(OC)cc4)nc3c2)CC1", "CLH(app) / uL/min/mL": 43}
{"SMILES_CODE": "CCCOC(=O)N1CCN(C(=O)c2ccc3c(Cl)cc(-c4ccc(C(=O)NC)cc4)nc3c2)CC1", "CLH(app) / uL/min/mL": 20}
{"SMILES_CODE": "CCCOC(=O)N1CCN(C(=O)c2ccc3c(Cl)cc(-c4ccc(C5(N)CC5)cc4)nc3c2)C[C@H]1C", "CLH(app) / uL/min/mL": 13}

====

# TEST_NAME: Apparent permeability across apical to basolateral side in human Caco2 cells by LC-MS/MS analysis
# Format: ADME, cell-based
# MEASUREMENT_SETUP: Caco-2

{"COMPOUND": "CCCOC(=O)N1CCN(C(=O)c2ccc3c(Cl)c4c(nc3c2)CC(CN)CC4)CC1 (stereo unspecified)", "Papp A→B, ×10⁻⁶ cm/s": 4.43}

====

# TEST_NAME: Apparent intrinsic clearance in human liver microsomes measured upto 60 mins by LC-MS/MS analysis
# Assay type: ADME, Microsome
# MEASUREMENT_SETUP: 1 h

{"SMILES_CODE": "CCCOC(=O)N1CCN(C(=O)c2ccc3c(Cl)cc(-c4ccc(C5(N)CC5)cc4)nc3c2)C[C@H]1C", "CLH(app) (uL/min/mL)": 20}
{"SMILES_CODE": "CCCOC(=O)N1CCN(C(=O)c2ccc3c(Cl)cc(-c4ccc(C)cc4)nc3c2)CC1", "CLH(app) (uL/min/mL)": 26}
{"SMILES_CODE": "CCCOC(=O)N1CCN(C(=O)c2ccc3c(Cl)cc(-c4ccc(C(=O)NC)cc4)nc3c2)CC1", "CLH(app) (uL/min/mL)": 53}
{"SMILES_CODE": "CCOC(=O)N1CCN(C(=O)c2ccc3c(Cl)c4c(nc3c2)CCCC4)CC1", "CLH(app) (uL/min/mL)": 107}
{"SMILES_CODE": "CCCOC(=O)N1CCN(C(=O)c2ccc3c(Cl)ccnc3c2)CC1", "CLH(app) (uL/min/mL)": 23}
{"SMILES_CODE": "CCCOC(=O)N1CCN(C(=O)c2ccc3c(Cl)cc(-c4ccccc4)nc3c2)C[C@H]1C", "CLH(app) (uL/min/mL)": 43}
{"SMILES_CODE": "CCCOC(=O)N1CCN(C(=O)c2ccc3c(Cl)cc(-c4ccc(OC)cc4)nc3c2)CC1", "CLH(app) (uL/min/mL)": 32}
{"SMILES_CODE": "CCCOC(=O)N1CCN(C(=O)c2ccc3c(Cl)cc(-c4ccccc4)nc3c2)CC1", "CLH(app) (uL/min/mL)": 28}

====

Reported CLH(app) values follow for various molecules
# TEST_NAME: Apparent intrinsic clearance in mouse liver microsomes measured upto 60 mins by LC-MS/MS analysis
# Type: ADME, Microsome
# MEASUREMENT_SETUP: 1 h
PROPERTY: CLH(app) (uL/min/mL)

{"SMILES_CODE": "CCOC(=O)N1CCN(C(=O)c2ccc3c(Cl)c4c(nc3c2)CCCC4)CC1", "PROPERTY": "CLH(app)", "UNIT_SYMBOL": "uL/min/mL", "ASSAY_RESULT": 245}
{"SMILES_CODE": "CCCOC(=O)N1CCN(C(=O)c2ccc3c(Cl)ccnc3c2)CC1", "PROPERTY": "CLH(app)", "UNIT_SYMBOL": "uL/min/mL", "ASSAY_RESULT": 750}
{"SMILES_CODE": "CCCOC(=O)N1CCN(C(=O)c2ccc3c(Cl)cc(-c4ccccc4)nc3c2)C[C@H]1C", "PROPERTY": "CLH(app)", "UNIT_SYMBOL": "uL/min/mL", "ASSAY_RESULT": 58}
{"SMILES_CODE": "CCCOC(=O)N1CCN(C(=O)c2ccc3c(Cl)cc(-c4ccc(C)cc4)nc3c2)CC1", "PROPERTY": "CLH(app)", "UNIT_SYMBOL": "uL/min/mL", "ASSAY_RESULT": 22}
{"SMILES_CODE": "CCCOC(=O)N1CCN(C(=O)c2ccc3c(Cl)cc(-c4ccccc4)nc3c2)CC1", "PROPERTY": "CLH(app)", "UNIT_SYMBOL": "uL/min/mL", "ASSAY_RESULT": 70}

====

# TESTED_SYSTEM: Histone-lysine N-methyltransferase SMYD3 (Homo sapiens) (UniProt Q9H7B4)
# Sequence (whole entry): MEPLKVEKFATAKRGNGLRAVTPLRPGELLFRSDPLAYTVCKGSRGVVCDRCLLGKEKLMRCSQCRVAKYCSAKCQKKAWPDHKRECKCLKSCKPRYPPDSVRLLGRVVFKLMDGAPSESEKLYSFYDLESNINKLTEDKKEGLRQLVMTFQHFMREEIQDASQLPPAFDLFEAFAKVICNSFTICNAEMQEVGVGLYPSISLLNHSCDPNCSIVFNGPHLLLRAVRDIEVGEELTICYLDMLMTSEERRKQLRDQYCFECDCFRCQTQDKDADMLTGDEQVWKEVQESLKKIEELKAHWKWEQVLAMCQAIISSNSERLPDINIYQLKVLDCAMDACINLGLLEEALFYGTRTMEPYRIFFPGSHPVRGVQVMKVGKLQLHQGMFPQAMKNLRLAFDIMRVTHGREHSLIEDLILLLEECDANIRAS
# TEST_NAME: Inhibition of SMYD3 in human HepG2 cells assessed as inhibition of cell proliferation incubated for 3 days by CellTiter-Glo luminescent assay
# Assay type: cell-based

{"SMILES_CODE": "CCCOC(=O)N1CCN(C(=O)c2ccc3ccc(-c4ccccc4)nc3c2)C[C@H]1C", "VALUE_COMPARATOR": "=", "GI50 (µM)": 60.8}
{"SMILES_CODE": "CCCOC(=O)N1CCN(C(=O)c2ccc3c(Cl)cc(-c4ccc(OC)cc4)nc3c2)CC1", "VALUE_COMPARATOR": ">", "GI50 (µM)": 100}
{"SMILES_CODE": "CCCOC(=O)N1CCN(C(=O)c2ccc3c(Cl)cc(-c4ccc(C(=O)NC)cc4)nc3c2)CC1", "VALUE_COMPARATOR": ">", "GI50 (µM)": 100}
{"SMILES_CODE": "CCCOC(=O)N1CCN(C(=O)c2ccc3c(Cl)cc(-c4ccccc4)nc3c2)CC1", "VALUE_COMPARATOR": ">", "GI50 (µM)": 100}
{"SMILES_CODE": "CCCOC(=O)N1CCN(C(=O)c2ccc3c(Cl)cc(-c4ccc(C5(N)CC5)cc4)nc3c2)C[C@H]1C", "VALUE_COMPARATOR": "=", "GI50 (µM)": 17.7}
{"SMILES_CODE": "CCCOC(=O)N1CCN(C(=O)c2ccc3c(Cl)cc(-c4ccccc4)nc3c2)C[C@H]1C", "VALUE_COMPARATOR": "=", "GI50 (µM)": 24.4}
{"SMILES_CODE": "CCOC(=O)N1CCN(C(=O)c2ccc3c(Cl)c4c(nc3c2)CCCC4)CC1", "VALUE_COMPARATOR": ">", "GI50 (µM)": 100}
